assay: Phase 1 Study ABI-1648-006, single oral dose pharmacokinetics; details: female, human, plasma, po, 25 mg
Readout name: Tmax

{"Smiles": "CO[C@H]1/C=C/O[C@@]2(C)Oc3c(C)c(O)c4c(=O)c(c5oc6cc(N7CCN(CC(C)C)CC7)cc(O)c6nc-5c4c3C2=O)NC(=O)/C(C)=C\\C=C\\[C@H](C)[C@H](O)[C@@H](C)[C@@H](O)[C@@H](C)[C@H](OC(C)=O)[C@@H]1C", "Value measured": "4.8 h"}

---

assay: Phase 1 Study ABI-1648-006, single oral dose pharmacokinetics; details: male, human, plasma, po, 12.5 mg, Elimination t1/2 Mean, males, single oral dose 12.5 mg

{"Smiles": "CO[C@H]1/C=C/O[C@@]2(C)Oc3c(C)c(O)c4c(=O)c(c5oc6cc(N7CCN(CC(C)C)CC7)cc(O)c6nc-5c4c3C2=O)NC(=O)/C(C)=C\\C=C\\[C@H](C)[C@H](O)[C@@H](C)[C@@H](O)[C@@H](C)[C@H](OC(C)=O)[C@@H]1C", "half-life, h": 134}
